Source: ChEMBL document CHEMBL1201862

- System: XF498
- experimental_protocol: NCI tumour cell line growth inhibition, 48 h
The source made the active and inactive calls. Cut-off read from the data, not from the text of the source: active = GI50 up to about 1.1 µM and inactive = higher.
Log the outcome using a class from active, inactive

Some solved entries appear below for comparison.
>  <molecule>
O=C1CCC2(c3ccc(Cl)cc3)Nc3ncccc3N12 (stereo not given)

>  <assigned_label>
inactive

$$$$
>  <molecule>
Cc1ccc(S(=O)(=O)C(CC(=O)N2CCCC2)C(=O)c2ccccc2)cc1 (stereo not given)

>  <assigned_label>
inactive

$$$$
>  <molecule>
O=C(Cc1nc2ccccc2s1)Nc1ccc(Cl)cc1

>  <assigned_label>
inactive

$$$$
>  <molecule>
CC(C)(C)c1cc2nc(c1)C(C(F)(F)F)(C(F)(F)F)OB(Br)OC2(C(F)(F)F)C(F)(F)F

>  <assigned_label>
active

$$$$
>  <molecule>
Cn1cc(NC(=O)c2cc(NC(=O)CCCCCCCCCC(=O)Nc3cc(C(=O)Nc4cc(C(=O)NCCC(=N)N)n(C)c4)n(C)c3)cn2C)cc1C(=O)NCCC(=N)N

>  <assigned_label>
inactive

$$$$

Outcome logged for CC(=O)CC(N)=O in this assay:
inactive

// next record O=C1C=CC(=CC=C2C=CN(CCCCCCCCCCC(=O)NCCCCCCCCCCCC(=O)O)C=C2)C=C1
inactive

Next up: COc1ccccc1/C=C1\CCC(CCN2CCOCC2)C1=O (stereo not given)
inactive

Consider next the molecule CC1=NN(C(=O)c2ccc(Cl)cc2)C(=O)/C1=C/c1ccco1 in the same way.
inactive

Same again, this time with CC(C)CN1CC(C)C(=O)NC1=O (stereo not given)
inactive
